# Measured Target: human androgen receptor (Homo sapiens)
# Sequence (P10275 whole entry): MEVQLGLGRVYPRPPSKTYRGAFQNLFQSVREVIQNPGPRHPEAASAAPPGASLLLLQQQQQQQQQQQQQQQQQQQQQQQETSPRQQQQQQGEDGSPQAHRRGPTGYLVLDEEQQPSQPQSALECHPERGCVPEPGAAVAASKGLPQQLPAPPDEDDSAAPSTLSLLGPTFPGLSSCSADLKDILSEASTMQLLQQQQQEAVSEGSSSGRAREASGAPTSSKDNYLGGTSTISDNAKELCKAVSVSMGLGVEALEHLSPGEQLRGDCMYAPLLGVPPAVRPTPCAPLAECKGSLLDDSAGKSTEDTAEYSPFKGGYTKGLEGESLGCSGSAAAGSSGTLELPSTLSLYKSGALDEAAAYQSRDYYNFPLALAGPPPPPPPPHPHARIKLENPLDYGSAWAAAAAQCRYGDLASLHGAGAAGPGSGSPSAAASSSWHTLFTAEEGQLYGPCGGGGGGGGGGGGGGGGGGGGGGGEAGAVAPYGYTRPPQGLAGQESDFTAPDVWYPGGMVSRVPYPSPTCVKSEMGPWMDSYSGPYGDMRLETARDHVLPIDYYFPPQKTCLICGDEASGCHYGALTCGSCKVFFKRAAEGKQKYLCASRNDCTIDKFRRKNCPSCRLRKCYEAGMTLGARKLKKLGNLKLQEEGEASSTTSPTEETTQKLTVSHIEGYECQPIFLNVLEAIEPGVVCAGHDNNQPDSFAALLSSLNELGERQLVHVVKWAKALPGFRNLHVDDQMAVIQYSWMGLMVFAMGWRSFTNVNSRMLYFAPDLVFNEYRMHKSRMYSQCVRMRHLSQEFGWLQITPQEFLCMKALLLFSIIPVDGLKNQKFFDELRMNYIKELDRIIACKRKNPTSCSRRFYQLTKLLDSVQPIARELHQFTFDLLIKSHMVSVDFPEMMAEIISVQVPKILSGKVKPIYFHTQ
# Test: Gene reporter assay in AIZ-AR cells, agonist mode (luciferase)
# Assay type: cell-based
# Test Settings: Clone 14, 24 h
Measured Attribute: Log EC50
Keep it simple and answer with nothing but the number.

Example entries and their recorded answers appear below.
INSERT INTO results (line_notation, measured_attribute, number) VALUES
  ('C[C@H]1C[C@@H]2[C@H]([C@@H](O)C[C@@]3(C)[C@H]2CC[C@]3(O)C(=O)CO)[C@@]2(C)C=CC(=O)C=C12', 'Log EC50', -7.48),
  ('O=c1c(-c2ccc(O)cc2)coc2cc(O)cc(O)c12', 'Log EC50', -6.79),
  ('C[C@]12CCC(=O)C=C1CC[C@@H]1[C@@H]2[C@@H](O)C[C@]2(C=O)[C@@H](C(=O)CO)CC[C@@H]12', 'Log EC50', -6.11);

Record summary for `C[C@]12CCC(=O)C=C1CC[C@@H]1[C@@H]2[C@@H](O)C[C@@]2(C)[C@H]1CC[C@]2(O)C(=O)CO` : reported Log EC50 = -6.49

---

# Test: in vitro
# Format: cell-based
# Test Settings: human
Structures can show the parent of a compound that is named as a salt.
viability at 24 h, 1 μM: recorded values
Numbers only here, please. The scale is %.

INSERT INTO assay_data (compound, number) VALUES
  ('O=C(c1ccc(OCCN2CCCCC2)cc1)c1c(-c2ccc(O)cc2)sc2cc(O)ccc12 [Raloxifene hydrochloride, raloxifene hydrochloride]', 95.9);

Record summary for `C[C@]12C=CC(=O)C=C1CC[C@@H]1[C@@H]2[C@@H](O)C[C@@]2(C)[C@H]1CC[C@]2(O)C(=O)CO` : reported viability at 24 h, 1 μM = 104

Record summary for `CC(=O)S[C@@H]1CC2=CC(=O)CC[C@]2(C)[C@H]2CC[C@@]3(C)[C@@H](CC[C@@]34CCC(=O)O4)[C@H]12` : reported viability at 24 h, 1 μM = 98.9

Record summary for CC(=O)O[C@]1(C(C)=O)CC[C@H]2[C@@H]3C=C(Cl)C4=CC(=O)[C@@H]5C[C@@H]5[C@]4(C)[C@H]3CC[C@@]21C [Cyproterone acetate, cyproterone acetate] : reported viability at 24 h, 1 μM = 99.4

Record summary for `C[C@H]1C[C@H]2[C@@H]3CCC4=CC(=O)C=C[C@]4(C)[C@@]3(F)[C@@H](O)C[C@]2(C)[C@@]1(O)C(=O)CO` : reported viability at 24 h, 1 μM = 108

---

viability at 24 h, 100 nM: recorded values
# Test: in vitro
# Assay type: cell-based
# Test Settings: human; log c -7; 24 h; MTT; read-out: % of viability
Numbers only here, please. The scale is %.

INSERT INTO results (molecule, measured_attribute, number) VALUES
  ('C[C@]12CCC(=O)C=C1CC[C@@H]1[C@@H]2[C@@H](O)C[C@]2(C=O)[C@@H](C(=O)CO)CC[C@@H]12', 'viability at 24 h, 100 nM', 99),
  ('C[C@]12CC[C@H]3[C@@H](CCC4=CC(=O)CC[C@@]43C)[C@@H]1CC[C@@H]2O', 'viability at 24 h, 100 nM', 103),
  ('C[C@]12CCC(=O)C[C@@H]1CC[C@@H]1[C@@H]2CC[C@]2(C)[C@@H](O)CC[C@@H]12 [5α-dihydrotestosterone]', 'viability at 24 h, 100 nM', 114);

Turning now to a further molecule:
Record summary for `C[C@]12CCC(=O)C=C1CC[C@@H]1[C@@H]2[C@@H](O)C[C@@]2(C)[C@H]1CC[C@]2(O)C(=O)CO` : reported viability at 24 h, 100 nM = 107
